Test system: Escherichia coli
Experiment: Antimicrobial activity against Escherichia coli MC4100 at 42 degC
Type: functional
The reader will find reported MIC values listed item by item below.
Output spec: scalar in µg/mL, unitless text.

Guide cases for MIC, answers given:
{"columns": ["Smiles str", "Target of assay", "Quantity unit", "MIC"],
 "data": [
  ["CCCCCCCCCCCCCC(=O)NCc1ccc(C(=O)N[C@@H](CCC(N)=O)C(=O)O)cc1", "Escherichia coli", "µg/mL", 2800],
  ["CCCCCCCCCCCCCC(=O)NCc1ccc(C(=O)N[C@@H](Cc2ccccc2)C(=O)O)cc1", "Escherichia coli", "µg/mL", 1200],
  ["CCCCCCCCCC(=O)NCc1ccc(C(=O)N[C@H](C(=O)O)[C@@H](C)CC)cc1", "Escherichia coli", "µg/mL", 490]
]}

-- ask Check the records and state MIC for CCCCCCCCCCCCCC(=O)NCc1ccc(C(=O)N[C@H](C(N)=O)[C@@H](C)CC)cc1
-- reply 1200

-- ask Quickly give me recorded MIC for CCCCCCCCCCCCCC(=O)NCCc1ccc(C(=O)N[C@H](C(=O)O)[C@@H](C)CC)cc1
-- reply 640

-- ask Note down MIC recorded for CCCCCCCCCCCCCC(=O)NCc1ccc(C(=O)N[C@@H](CC(N)=O)C(=O)O)cc1
-- reply 100
